Target: substance P receptor (Homo sapiens)
Construct: expressed in transfected cells; host or cells: Sf9 insect cells
Sequence (P25103 whole entry, species assumed): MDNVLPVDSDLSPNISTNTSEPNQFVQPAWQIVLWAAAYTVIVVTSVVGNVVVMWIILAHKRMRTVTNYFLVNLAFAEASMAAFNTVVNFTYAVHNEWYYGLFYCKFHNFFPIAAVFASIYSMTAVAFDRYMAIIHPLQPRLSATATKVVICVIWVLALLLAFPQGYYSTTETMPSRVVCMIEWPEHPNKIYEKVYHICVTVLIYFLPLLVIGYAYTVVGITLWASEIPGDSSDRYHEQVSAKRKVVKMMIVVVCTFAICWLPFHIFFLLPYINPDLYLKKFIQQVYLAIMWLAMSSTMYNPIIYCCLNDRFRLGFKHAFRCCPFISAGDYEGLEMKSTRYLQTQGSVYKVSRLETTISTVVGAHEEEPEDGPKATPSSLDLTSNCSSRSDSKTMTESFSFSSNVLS
Assay: Binding of individual phage clones to Sf9 cells expressing substance P receptor (control)
Details: phage clone displaying the peptide
measured quantity: % Recovery SPR (%)
# value in %; strip the unit string

* AEPMPHSLNFSQYLWYT (displayed on phage) | 0.080
* AEPLDLWSLYSLPPLAM (displayed on phage) | 0.095

Could you tell me which % Recovery SPR is on file for AESSLWTRYAWPSMPSY (displayed on phage) ?
0.260

Returns the measured % Recovery SPR for the input sequence. Input: AEWHPGLSFGSYLWSKT (displayed on phage)
0.034

Would you mind telling me what % Recovery SPR value was observed for AEPALLNWSFFFNPGLH (displayed on phage) ?
0.100

% Recovery SPR for AESLPTLTSILWGKESV (displayed on phage) ?
0.022

Would you kindly share the measured % Recovery SPR for AECLNGGTAVSNKYFSNIHWCN (displayed on phage) [reference compound] ?
0.008
